- targetEntity: ΔF508-CFTR (Homo sapiens, UniProt P13569, DEL508-508)
- Sequence (P13569 with tags, fused parts or gaps DEL508-508): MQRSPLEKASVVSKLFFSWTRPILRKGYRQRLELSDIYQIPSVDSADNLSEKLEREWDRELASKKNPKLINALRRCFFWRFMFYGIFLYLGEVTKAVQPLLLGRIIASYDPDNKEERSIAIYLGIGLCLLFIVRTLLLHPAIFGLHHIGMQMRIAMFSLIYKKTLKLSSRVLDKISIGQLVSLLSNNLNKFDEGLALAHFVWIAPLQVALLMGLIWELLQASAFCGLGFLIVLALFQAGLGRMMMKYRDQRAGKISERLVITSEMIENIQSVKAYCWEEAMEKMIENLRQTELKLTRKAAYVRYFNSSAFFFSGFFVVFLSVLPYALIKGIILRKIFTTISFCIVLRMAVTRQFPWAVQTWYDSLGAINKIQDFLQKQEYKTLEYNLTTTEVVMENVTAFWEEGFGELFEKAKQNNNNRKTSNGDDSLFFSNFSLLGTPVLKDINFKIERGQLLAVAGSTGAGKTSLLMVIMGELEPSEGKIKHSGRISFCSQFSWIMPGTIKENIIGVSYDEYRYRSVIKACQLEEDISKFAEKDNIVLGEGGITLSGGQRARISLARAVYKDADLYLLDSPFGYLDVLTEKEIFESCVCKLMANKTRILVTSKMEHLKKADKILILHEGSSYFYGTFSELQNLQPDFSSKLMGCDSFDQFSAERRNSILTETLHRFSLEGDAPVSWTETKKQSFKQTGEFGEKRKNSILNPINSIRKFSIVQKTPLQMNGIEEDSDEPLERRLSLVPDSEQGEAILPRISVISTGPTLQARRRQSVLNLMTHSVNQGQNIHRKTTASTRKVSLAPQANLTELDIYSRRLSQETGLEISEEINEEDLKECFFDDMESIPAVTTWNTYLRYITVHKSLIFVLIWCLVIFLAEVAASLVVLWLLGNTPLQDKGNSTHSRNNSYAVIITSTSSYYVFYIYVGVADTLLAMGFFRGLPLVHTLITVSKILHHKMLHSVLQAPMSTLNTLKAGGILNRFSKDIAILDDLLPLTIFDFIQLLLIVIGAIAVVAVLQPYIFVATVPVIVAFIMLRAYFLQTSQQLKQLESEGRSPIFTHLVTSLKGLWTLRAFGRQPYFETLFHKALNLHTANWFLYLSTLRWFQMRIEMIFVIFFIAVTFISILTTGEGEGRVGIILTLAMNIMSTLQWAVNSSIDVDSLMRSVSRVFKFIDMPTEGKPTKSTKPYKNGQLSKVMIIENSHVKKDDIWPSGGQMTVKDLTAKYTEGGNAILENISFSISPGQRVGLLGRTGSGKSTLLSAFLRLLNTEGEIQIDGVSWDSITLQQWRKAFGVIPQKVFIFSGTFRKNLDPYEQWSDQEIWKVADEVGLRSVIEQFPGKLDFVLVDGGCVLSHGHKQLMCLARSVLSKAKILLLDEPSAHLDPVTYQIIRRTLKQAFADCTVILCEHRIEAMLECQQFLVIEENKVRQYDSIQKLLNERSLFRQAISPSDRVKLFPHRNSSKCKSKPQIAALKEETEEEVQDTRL
- experimentNotes: Membrane potential optical (FRET/VIPR) assay, identification of potentiator compounds
- particulars: Table 3; assay not given
Form field: EC50 (one value per entry).
assayMetric: EC50

chemsmiles=CNc1cc(NC(=O)c2c[nH]c3ccccc3c2=O)ccc1C(C)(C)C assaymetric=EC50 readoutvalue="< 10 µM"
chemsmiles=O=C(Nc1cc(O)cc(C(F)(F)F)c1)c1c[nH]c2ccc(F)cc2c1=O assaymetric=EC50 readoutvalue="< 10 µM"
chemsmiles=Cc1cc(C(C)(C)C)c(O)cc1NC(=O)c1c[nH]c2ccccc2c1=O assaymetric=EC50 readoutvalue="< 10 µM"
chemsmiles=CCCCc1ccc(NC(=O)c2c[nH]c3ccccc3c2=O)cc1 assaymetric=EC50 readoutvalue="< 10 µM"
chemsmiles=O=C(Nc1cc(C(=O)O)c2cc[nH]c2c1)c1c[nH]c2ccccc2c1=O assaymetric=EC50 readoutvalue="< 10 µM"

###

- targetEntity: ΔF508-CFTR (Homo sapiens, UniProt P13569, DEL508-508)
- Construct: expressed in transfected cells
- experimentNotes: Membrane potential optical (FRET/VIPR) assay, identification of potentiator compounds
- Type: cell-based
- particulars: Table 3; relative efficacy; assay not given
assayMetric: % Activity

compound="COc1cc(NC(=O)c2c[nH]c3ccccc3c2=O)cc(C(F)(F)F)c1 [Compound 691]" readoutvalue="++ (between 25% to 100%)"
compound="O=C(Nc1ccc2ncccc2c1)c1c[nH]c2ccccc2c1=O [Compound 280]" readoutvalue="+ (<25%)"
compound="O=C(Nc1ccc2cc[nH]c2c1)c1cnc2ccc(F)cc2c1O [Compound 345]" readoutvalue="++ (between 25% to 100%)"
compound="COc1ccc2c(=O)c(C(=O)Nc3cc(O)c(C(C)(C)C)cc3C(C)(C)C)c[nH]c2c1 [Compound 583]" readoutvalue="++ (between 25% to 100%)"
compound="CCCCOC(=O)NCC(C)(C)c1ccc(NC(=O)c2c[nH]c3ccccc3c2=O)cc1 [Compound 460]" readoutvalue="++ (between 25% to 100%)"
compound="O=C(Nc1ccccc1Oc1ccc(Cl)cc1Cl)c1c[nH]c2ccccc2c1=O [Compound 245]" readoutvalue="++ (between 25% to 100%)"
compound="O=C(Nc1ccc2c(c1)S(=O)(=O)C=C2)c1c[nH]c2ccccc2c1=O [Compound 446]" readoutvalue="+ (<25%)"
compound="Cc1csc(-c2ccccc2NC(=O)c2c[nH]c3ccccc3c2=O)c1 [Compound 151]" readoutvalue="++ (between 25% to 100%)"
compound="NS(=O)(=O)c1ccccc1NC(=O)c1c[nH]c2ccccc2c1=O [Compound 78]" readoutvalue="+ (<25%)"

###

- targetEntity: ΔF508-CFTR (Homo sapiens, UniProt P13569, DEL508-508)
- Construct: expressed in transfected cells
- experimentNotes: Membrane potential optical (FRET/VIPR) assay, identification of potentiator compounds
- Type: cell-based
- particulars: Table 3; relative efficacy; assay not given
assayMetric: % Activity

chemsmiles=Cc1ccc2[nH]cc(C(=O)Nc3ccc(N4CCC(C)(C)C4)cc3C(F)(F)F)c(=O)c2c1 readoutvalue="++ (between 25% to 100%)"
chemsmiles=O=C(Nc1cc(O)c(C2CCCCC2)cc1C(F)(F)F)c1c[nH]c2ccccc2c1=O readoutvalue="+++ (>100%)"
chemsmiles=CC(=O)N1CC2(CC2)c2ccc(NC(=O)c3c[nH]c4ccccc4c3=O)cc21 readoutvalue="++ (between 25% to 100%)"
chemsmiles=Cc1cccc2[nH]cc(C(=O)Nc3ccc(N4CCC(F)(F)C4)cc3C(F)(F)F)c(=O)c12 readoutvalue="++ (between 25% to 100%)"
chemsmiles=Cc1cccc2[nH]cc(C(=O)Nc3ccc(N4CC(F)(F)C[C@H]4C)cc3C(F)(F)F)c(=O)c12 readoutvalue="++ (between 25% to 100%)"
chemsmiles=CCc1ccc(Cl)c(CC)c1NC(=O)c1c[nH]c2ccccc2c1=O readoutvalue="++ (between 25% to 100%)"
chemsmiles=N#CCc1ccc(-c2ccccc2NC(=O)c2c[nH]c3ccccc3c2=O)cc1 readoutvalue="++ (between 25% to 100%)"
chemsmiles=O=C(Nc1ccc2c3c([nH]c2c1)CCCC3)c1c[nH]c2ccccc2c1=O readoutvalue="++ (between 25% to 100%)"
chemsmiles=O=C(Nc1cc(O)c(C(F)(F)F)cc1F)c1c[nH]c2ccccc2c1=O readoutvalue="++ (between 25% to 100%)"
chemsmiles=O=C(Nc1ccc2cc[nH]c2c1)c1c[nH]c2ccccc2c1=O readoutvalue="++ (between 25% to 100%)"
chemsmiles=CC(C)c1ccc(N)cc1NC(=O)c1c[nH]c2ccccc2c1=O readoutvalue="++ (between 25% to 100%)"
chemsmiles=O=C(Nc1cnccn1)c1c[nH]c2ccccc2c1=O readoutvalue="+ (<25%)"
chemsmiles=O=C(Nc1cccc2c1CCCC2)c1c[nH]c2ccccc2c1=O readoutvalue="+++ (>100%)"
chemsmiles=CCc1ccc(NC(=O)c2c[nH]c3ccccc3c2=O)cc1NC(=O)OC readoutvalue="++ (between 25% to 100%)"
chemsmiles=Cc1cc2ccc(NC(=O)c3c[nH]c4ccccc4c3=O)cc2[nH]1 readoutvalue="++ (between 25% to 100%)"
chemsmiles=CC(C)c1cc(C(F)(F)F)c(NC(=O)c2c[nH]c3ccccc3c2=O)cc1OCc1ccccc1 readoutvalue="++ (between 25% to 100%)"
chemsmiles=CNc1ccc(C(C)C)c(NC(=O)c2c[nH]c3ccccc3c2=O)c1 readoutvalue="++ (between 25% to 100%)"
chemsmiles=COc1ccc2[nH]cc(C(=O)Nc3cc4[nH]ccc4cc3C(C)(C)C)c(=O)c2c1 readoutvalue="+++ (>100%)"
chemsmiles=O=C(Nc1cc(N2CCCC2)cc(C(F)(F)F)c1)c1c[nH]c2ccccc2c1=O readoutvalue="++ (between 25% to 100%)"
chemsmiles=CC(C)(C)OC(=O)[C@@H]1CCCN1c1ccc(NC(=O)c2c[nH]c3ccccc3c2=O)c(C(F)(F)F)c1 readoutvalue="++ (between 25% to 100%)"
chemsmiles=CC(C)Cc1ccc(-c2ccccc2NC(=O)c2c[nH]c3ccccc3c2=O)cc1 readoutvalue="++ (between 25% to 100%)"
chemsmiles=O=C(Nc1cc(Cl)ccc1Oc1ccccc1)c1c[nH]c2ccccc2c1=O readoutvalue="++ (between 25% to 100%)"
chemsmiles=CCOc1ccccc1-c1ccc(NC(=O)OC(C)(C)C)cc1NC(=O)c1c[nH]c2ccccc2c1=O readoutvalue="++ (between 25% to 100%)"
chemsmiles=C#Cc1ccc(NC(=O)c2c[nH]c3ccccc3c2=O)cc1 readoutvalue="++ (between 25% to 100%)"
chemsmiles=CC(C)(C)c1cc(F)c(NC(=O)c2c[nH]c3ccc(F)cc3c2=O)cc1O readoutvalue="++ (between 25% to 100%)"
chemsmiles=NS(=O)(=O)c1cccc(NC(=O)c2c[nH]c3ccccc3c2=O)c1 readoutvalue="+ (<25%)"
chemsmiles=N#Cc1cc(Cl)cc(Cl)c1NC(=O)c1c[nH]c2ccccc2c1=O readoutvalue="+ (<25%)"
chemsmiles=O=C(Nc1cc(O)cc(C(F)(F)F)c1)c1c[nH]c2ccccc2c1=O readoutvalue="++ (between 25% to 100%)"
chemsmiles=COc1ccc(Oc2ccc(C(F)(F)F)cc2NC(=O)c2c[nH]c3ccccc3c2=O)cc1 readoutvalue="++ (between 25% to 100%)"
chemsmiles=CCc1ccc(NC)cc1NC(=O)c1c[nH]c2ccccc2c1=O readoutvalue="++ (between 25% to 100%)"
chemsmiles=COC(=O)c1c(NC(=O)c2c[nH]c3ccccc3c2=O)csc1C(C)(C)C readoutvalue="++ (between 25% to 100%)"
chemsmiles=CC(C)(C)c1cc(F)c(NC(=O)c2c[nH]c3c(C(F)(F)F)cccc3c2=O)cc1O readoutvalue="+ (<25%)"
chemsmiles=CCOC(=O)Nc1cc(NC(=O)c2c[nH]c3ccccc3c2=O)ccc1C(C)C readoutvalue="++ (between 25% to 100%)"
chemsmiles=CCCc1ccc(NC(=O)c2c[nH]c3ccccc3c2=O)cc1 readoutvalue="++ (between 25% to 100%)"
